Experimental Target: T1, P9
T1 chain: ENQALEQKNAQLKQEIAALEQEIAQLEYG
Assay Protocol: two-hybrid library CC1;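 note: natural log of median RNA to DNA barcode read ratio; higher means stronger binding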
Condition Notes: mean of both orientations
Provide the reported interaction score of each item.
Form field (numeric): enter value without unit.

Record summary for SPEDEIQQLEEEIAQLEQKNAALKEKNQALKYG [P3] : reported interaction score = -2.09

Record summary for KISQLKEENQQLEQKIQQLKEENSQLEYG [P8mS] : reported interaction score = -2.35

Record summary for KNSQLKEEIQQLEEENQQLEEKIRQLKYGC [P6SC1] : reported interaction score = -1.54

Record summary for SPEDKIAQLKEENQQLEQKIQALKEENAALEYG [P8] : reported interaction score = -1.88

Record summary for EIQSLEEKNSQLKQEISQLEEKNQQLKYG [P7mS] : reported interaction score = -2.27

Record summary for ENARLEEKIRQLKQKNSQLKEEIQQLEYGC [P5SC2] : reported interaction score = -2.39

Record summary for ENQALEQEIAQLEQEIAALEQKNAQLKYG [P11] : reported interaction score = -2.25
